# Test system: Candida albicans
# method.description: microbe, parasite or virus in culture
# Description: Tested for antimicrobial activity against Candida albicans (clinical isolate) at concentration of 0.01-5 uM/mL
test.readout: MIC (µM)
Respond numerically; units are µM and should not be typed.

Worked set:
compound | test.readout | unit.abbreviation | reported
Cc1ccc2c(c1)c(C)c1c3ccccc3nc-1n2C | MIC | µM | 15
Cc1c2c3ccccc3nc-2n(C)c2ccccc12 | MIC | µM | 30
Cc1ccc2nc3n(C)c4ccc(C)cc4c(C)c-3c2c1 | MIC | µM | 15
Cn1c2nc3ccccc3c-2cc2ccccc21 [NEOCRYPTOLEPINE] | MIC | µM | 120

Could you now consider this next compound?
Looking up `Cc1c2c3ccccc3nc-2n(C)c2c(C)cccc12` , I see its MIC listed as 120
